Ref: patent US20230235004A1

Molecular target: T1, human MAdCAM expressed on cells (human, UniProt Q13477 19-382)
T1 construct: whole, on cells
T1 sequence (looked up): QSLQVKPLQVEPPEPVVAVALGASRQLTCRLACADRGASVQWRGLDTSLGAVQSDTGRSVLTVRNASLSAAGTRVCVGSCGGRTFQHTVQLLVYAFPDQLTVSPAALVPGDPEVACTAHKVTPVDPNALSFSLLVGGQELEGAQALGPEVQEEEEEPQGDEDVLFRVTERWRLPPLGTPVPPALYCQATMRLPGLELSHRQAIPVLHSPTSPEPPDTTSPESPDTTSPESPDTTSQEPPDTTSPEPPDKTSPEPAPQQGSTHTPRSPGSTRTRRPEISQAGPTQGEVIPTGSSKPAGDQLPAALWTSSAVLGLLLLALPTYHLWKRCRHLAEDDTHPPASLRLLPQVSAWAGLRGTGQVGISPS
Experiment: cell binding
OBSERVED_PROPERTY: binding result

[
  {
    "BINDER": "MAdCAM Antibody Table 2 clone 22 (antibody, V domains shown, IgG format) VH: EVQLLESGGGLVQPGGSLRLSCAASGFTFDDYAMHWVRQAPGKGLEWVSGISWNSGSIGYADSVKGRFTISRDNSKNTLYLQMNSLRAEDTAVYYCAKDIVAAGHYYYGMDVWGQGTTVTVSS VL: DIQMTQSPSSLSASVGDRVTITCQASQDISNYLNWYQQKPGKAPKLLIYDASNLETGVPSRFSGSGSGTDFTLTISSLQPEDFATYYCQQSYSTPLTFGGGTKVEIK",
    "OBSERVED_PROPERTY": "binding result",
    "RESULT": "binds"
  },
  {
    "BINDER": "MAdCAM Antibody Table 2 clone 42 (antibody, V domains shown, IgG format) VH: QVQLVQSGAEVKKPGASVKVSCKASGYTLTDYYMHWVRQAPGQGLEWMGIINPSGGSTSYAQKFQGRVTMTRDTSTSTVYMELSSLRSEDTAVYYCAREEYSSSSGYFDYWGQGTLVTVSS VL: DIQMTQSPSSLSASVGDRVTITCRASQGISSWLAWYQQKPGKAPKLLIYAASSLQSGVPSRFSGSGSGTDFTLTISSLQPEDFATYYCQQSYSTPLTFGQGTKVEIK",
    "OBSERVED_PROPERTY": "binding result",
    "RESULT": "binds"
  },
  {
    "BINDER": "MAdCAM Antibody Table 2 clone 17 (antibody, V domains shown, IgG format) VH: QVQLVQSGAEVKKPGSSVKVSCKASGYTFTDYHIHWVRQAPGQGLEWMGGIVPRSGSTTYAQKFQGRVTITADESTSTAYMELSSLRSEDTAVYYCAKDESSGWYYFDYWGQGTLVTVSS VL: DIVMTQSPLSLPVTPGEPASISCRSSQSLLHSNGYNYLDWYLQKPGQSPQLLIYSAYNRASGVPDRFSGSGSGTDFTLKISRVEAEDVGVYYCMQALQTPLTFGQGTKVEIK",
    "OBSERVED_PROPERTY": "binding result",
    "RESULT": "binds"
  }
]
